# Test system: First-order mesenteric arteries (MA1)
# Protocol summary: Wire myography: force generation, dose response to phenylephrine in intact arteries
# Condition set: Mus musculus, CON+NS (normal salt diet); read-out: EC50 force generation to PE

- Smiles code: "CNC[C@H](O)c1cccc(O)c1"
  EC50: "900 nM"

====

# System: First-order mesenteric arteries (MA1)
# Protocol summary: Wire myography: relaxation to 8-Br-cGMP of α-toxin permeabilized, calcium-clamped arteries
# Design: species or system mouse
# Condition set: E24 F/+; α-toxin permeabilized, pCa6
# Procedure: First-order mesenteric arteries (2 mm length; 200-250 μm ID) were dissected free of connective tissue in a HEPES-bicarbonate physiological saline solution containing the following concentrations (in mM): 112 NaCl, 25.7 NaHCO3, 4.9 KCl, 2.0 CaCl2, 1.2 MgSO4, 1.2 KH2PO4, 11.5 glucose, and 10 HEPES. The solution was at pH 7.4 and maintained at 37 C for experiments. […] Force was continuously recorded and measured at steady state. […] Maximal response of MAs to depolarization was assessed with 100 mM KCl. […]
Property name: EC50 (nM)

- Molecule: "Nc1nc2c(nc(Br)n2[C@@H]2O[C@@H]3COP(=O)(O)O[C@H]3[C@H]2O)c(=O)[nH]1 [8-Br-cGMP, 8-bromo-cGMP]"
  Property name: "EC50"
  Result: 3

====

# Test system: First-order mesenteric arteries (MA1)
# Protocol summary: Wire myography: relaxation to 8-Br-cGMP of α-toxin permeabilized, calcium-clamped arteries
# Set-up: species or system mouse
# Condition set: E24 F/F; α-toxin permeabilized, pCa6

- Smiles code: "Nc1nc2c(nc(Br)n2[C@@H]2O[C@@H]3COP(=O)(O)O[C@H]3[C@H]2O)c(=O)[nH]1"
  Assay target: "First-order mesenteric arteries (MA1)"
  EC50 (nM): 6
